TEST TARGET: human GPR84 receptor (Homo sapiens)
Construct: frozen aliquots prepared by acCELLerate
Sequence (Q9NQS5 whole entry): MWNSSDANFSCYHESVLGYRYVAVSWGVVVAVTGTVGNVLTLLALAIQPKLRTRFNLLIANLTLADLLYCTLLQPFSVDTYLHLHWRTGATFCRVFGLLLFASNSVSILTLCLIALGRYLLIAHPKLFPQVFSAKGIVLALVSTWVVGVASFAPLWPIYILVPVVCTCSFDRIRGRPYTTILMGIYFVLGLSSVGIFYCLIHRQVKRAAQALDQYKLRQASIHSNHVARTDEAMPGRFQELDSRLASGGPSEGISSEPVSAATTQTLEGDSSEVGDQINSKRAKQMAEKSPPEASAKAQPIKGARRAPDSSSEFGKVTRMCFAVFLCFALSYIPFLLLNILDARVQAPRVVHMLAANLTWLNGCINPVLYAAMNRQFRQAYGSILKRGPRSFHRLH
RUN DESCRIPTION: cAMP HTRF assay for identification of cellular GPR84 antagonists
CONDITION NOTES: CHO-K1 cells stably expressing human GPR84; Forskolin + agonist 6-OAU (EC80); average or median values
pIC50: −log10 of the molar value.
Hi, to clarify the labels: fulfilled covers pIC50 from 7 upward, not fulfilled covers anything below 7.

Cc1c(C(=O)NC[C@@H]2CCCO2)oc2c1-c1nn(Cc3ccncc3)cc1CC2; fulfilled
O=C(NCc1ncco1)c1oc2c(c1C(F)(F)F)-c1nn(Cc3ccccn3)cc1CC2; fulfilled
Cc1cccc(Cn2cc3c(n2)-c2c(oc(C(=O)NCc4ccn(C)n4)c2C)CC3)n1; not fulfilled
Cc1c(C(=O)NC[C@@H]2CCCO2)oc2c1-c1nn(CC3CN(C(=O)OCc4ccccc4)C3)cc1CC2; fulfilled
Cc1ccc(CNC(=O)c2oc3c(c2C)-c2nn(CC4COc5ncccc5O4)cc2CC3)cc1 (stereo not shown); fulfilled
Cc1ccc(Cn2cc3c(n2)-c2c(oc(C(=O)N[C@@H]4CCOC4)c2C)CC3)nc1; not fulfilled
Cc1c(C(=O)NC[C@@H]2CCCO2)oc2c1-c1nn(C[C@H]3COCCO3)cc1CC2; fulfilled
C[C@@H]1Cc2oc(C(=O)NCc3ncccn3)c(C(F)(F)F)c2-c2nn(C[C@H]3COCCO3)cc21 (single isomer, unassigned); fulfilled
CC(=O)N1CCC(Cn2cc3c(n2)-c2c(oc(C(=O)NC[C@@H]4CCCO4)c2C(F)(F)F)C[C@H]3C)CC1 (single isomer, unassigned); fulfilled
Cc1c(C(=O)NC[C@@H]2CCCO2)oc2c1-c1nn(Cc3ncccn3)cc1CC2; not fulfilled
Cc1cnc(CNC(=O)c2oc3c(c2C(F)(F)F)-c2nn(C[C@H]4COCCO4)cc2[C@H](C)C3)cn1 (single isomer, unassigned); fulfilled
CCC(=O)C(=O)N1CCC(Cn2cc3c(n2)-c2c(oc(C(=O)NC[C@@H]4CCCO4)c2C(F)(F)F)C[C@H]3C)CC1 (single isomer, unassigned); fulfilled
O=C(NC[C@@H]1COCCO1)c1oc2c(c1C(F)(F)F)-c1nn(Cc3ccccn3)cc1C1(CCC1)C2; fulfilled
Cc1ccc(Cn2cc3c(n2)-c2c(oc(C(=O)NC[C@@H]4CCCO4)c2C(F)(F)F)CC32CC2)nc1; fulfilled

---

The compounds listed here are annotated with their pIC50.
TEST TARGET: human GPR84 receptor (Homo sapiens)
Construct: frozen aliquots prepared by acCELLerate
RUN DESCRIPTION: cAMP HTRF assay for identification of cellular GPR84 antagonists
CONDITION NOTES: CHO-K1 cells stably expressing human GPR84; Forskolin + agonist 6-OAU (EC80); average or median values
pIC50: −log10 of the molar value.
MEASURED METRIC: pIC50

Cn1cnc(CNC(=O)c2oc3c(c2C(F)(F)F)-c2nn(C[C@H]4COCCO4)cc2CC3)c1 [Example 229]; 7.05
Cc1c(C(=O)NC[C@@H]2CCCO2)oc2c1-c1nn(Cc3cccc(C(F)(F)F)n3)cc1CC2 [Example 56]; 7.04
Cc1c(C(=O)NC[C@@H]2CCCO2)oc2c1-c1nn(C[C@@H]3CCOC3)cc1CC2 [Example 113]; 7.04

---

TEST TARGET: human GPR84 receptor (Homo sapiens)
Construct: frozen aliquots prepared by acCELLerate; host or cells: CHO-K1
RUN DESCRIPTION: cAMP HTRF assay for identification of cellular GPR84 antagonists
Assay type: cell-based
CONDITION NOTES: CHO-K1 cells stably expressing human GPR84; Forskolin + agonist 6-OAU (EC80); average or median values
pIC50: −log10 of the molar value.
MEASURED METRIC: pIC50

Cc1ccc(Cn2cc3c(n2)-c2c(oc(C(=O)NC[C@@H]4COCCO4)c2C(F)(F)F)CC32CC2)nc1; 8.52
Cc1c(C(=O)NC[C@@H]2CCCO2)oc2c1-c1nn(CC3(C)COC3)cc1CC2; 7.77
Cc1c(C(=O)NC[C@H]2COCCO2)oc2c1-c1nn(C[C@H]3COCCO3)cc1C1(CCC1)C2; 5.13
C[C@@H]1Cc2oc(C(=O)NCc3cn(C)cn3)c(C(F)(F)F)c2-c2nn(C[C@H]3COCCO3)cc21 (single isomer, unassigned); 7.40
O=C(NC[C@@H]1CCCO1)c1oc2c(c1C(F)(F)F)-c1nn(Cc3ccncc3)cc1C1(CCC1)C2; 7.80
Cc1c(C(=O)NCc2ccon2)oc2c1-c1nn(CC3COc4ncccc4O3)cc1CC2 (single isomer, unassigned) [Example 55-1]; 6.47
Cc1c(C(=O)NCc2cc(C3CC3)on2)oc2c1-c1nn(Cc3ccccn3)cc1CC2; 6.82
Cc1c(C(=O)NCc2cnoc2)oc2c1-c1nn(Cc3ccccn3)cc1CC2; 5.18
Cc1c(C(=O)Nc2ccc(C#N)cc2)oc2c1-c1nn(Cc3ccccn3)cc1CC2; 4.95
Cc1ccc(Cn2cc3c(n2)-c2c(oc(C(=O)NC[C@@H]4CCCO4)c2C)CC3)cn1; 7.22
Cc1c(C(=O)NC[C@@H]2CCCO2)oc2c1-c1nn(C(C)c3ccccn3)cc1CC2 (mixture of isomers); 6.24
CC1CCC(CNC(=O)c2oc3c(c2C(F)(F)F)-c2nn(CC4COCCO4)cc2CC3)O1 (single isomer, unassigned) [Example 224-2]; 6.81
Cc1c(C(=O)NC[C@@H]2COCCO2)oc2c1-c1nn(Cc3cccnc3)cc1CC2; 7.54
Cc1c(C(=O)NCc2cnoc2C2CC2)oc2c1-c1nn(Cc3ccccn3)cc1CC2; 4.95
CC(=O)N1CCC(Cn2cc3c(n2)-c2c(oc(C(=O)NC[C@@H]4COCCO4)c2C(F)(F)F)C[C@H]3C)CC1 (single isomer, unassigned); 8.10
O=C(NCC1CC(F)(F)CO1)c1oc2c(c1C(F)(F)F)-c1nn(C[C@H]3COCCO3)cc1CC2 (mixture of isomers); 7.70
Cc1c(C(=O)NC[C@@H]2CCOC2)oc2c1-c1nn(Cc3ccccn3)cc1CC2; 5.72
Cc1ccc(Cn2cc3c(n2)-c2c(oc(C(=O)NC[C@@H]4CCCO4)c2C(F)(F)F)CC3C)cn1 (mixture of isomers); 8.30
CC1(C)Cc2oc(C(=O)NC[C@@H]3COCCO3)c(C(F)(F)F)c2-c2nn(C[C@H]3COCCO3)cc21; 7.24

---

TEST TARGET: human GPR84 receptor (Homo sapiens)
Construct: frozen aliquots prepared by acCELLerate
RUN DESCRIPTION: cAMP HTRF assay for identification of cellular GPR84 antagonists
CONDITION NOTES: CHO-K1 cells stably expressing human GPR84; Forskolin + agonist 6-OAU (EC80); average or median values
pIC50: −log10 of the molar value.
MEASURED METRIC: pIC50

Cc1nonc1CNC(=O)c1oc2c(c1C)-c1nn(Cc3ccccn3)cc1CC2; 5.70
Cc1c(C(=O)NC[C@@H]2COCCO2)oc2c1-c1nn(C[C@@H]3CN(C)CCO3)cc1CC2; 6.74
Cc1noc(C)c1CNC(=O)c1oc2c(c1C)-c1nn(Cc3ccccn3)cc1CC2; 4.76
Cc1c(C(=O)NC[C@@H]2COCCO2)oc2c1-c1nn(Cc3ccc(C(=O)NC[C@@H]4COCCO4)nc3)cc1CC2; 6.89
Cc1c(C(=O)NCC2CN(C)CCO2)oc2c1-c1nn(Cc3ccccn3)cc1CC2 (single isomer, unassigned) [Example 38-2]; 5.45
O=C(NC[C@@H]1COCCO1)c1oc2c(c1C(F)(F)F)-c1nn(CC3CCN(C(=O)C4CC4)CC3)cc1CC2; 7.68
[2H]C([2H])(c1ccccc1)n1cc2c(n1)-c1c(oc(C(=O)NC[C@@H]3COCCO3)c1C)CC2; 7.60

---

TEST TARGET: human GPR84 receptor (Homo sapiens)
Construct: frozen aliquots prepared by acCELLerate; host or cells: CHO-K1
RUN DESCRIPTION: cAMP HTRF assay for identification of cellular GPR84 antagonists
Assay type: cell-based
CONDITION NOTES: CHO-K1 cells stably expressing human GPR84; Forskolin + agonist 6-OAU (EC80); average or median values
pIC50: −log10 of the molar value.
In this section we review reported pIC50 values for a set of molecules.
MEASURED METRIC: pIC50

Cc1c(C(=O)NC[C@@H]2CCCO2)oc2c1-c1nn(CC3CCOCC3)cc1CC2; 6.96
Cc1c(C(=O)NC[C@@H]2COCCO2)oc2c1-c1nn(CC3COC3)cc1CC2; 6.89
Cc1c(C(=O)NC[C@@H]2COCCO2)oc2c1-c1nn(Cc3ccccn3)cc1C1(CCC1)C2; 7.37
Cc1c(C(=O)NCC2CC(F)(F)CO2)oc2c1-c1nn(C[C@H]3COCCO3)cc1C1(CC1)C2 (mixture of isomers); 7.01
Cc1c(C(=O)NC[C@@H]2COCCO2)oc2c1-c1nn(C[C@H]3CCOC3)cc1CC2; 6.49
Cc1c(C(=O)NC[C@@H]2COCCO2)oc2c1-c1nn(CC3CNC3)cc1CC2; 5.71
Cc1cccc(Cn2cc3c(n2)-c2c(oc(C(=O)NCCN4CCC4)c2C)CC3)n1; 5.74
Cc1c(C(=O)NCCN2CC(C)(C)C2=O)oc2c1-c1nn(Cc3ccccn3)cc1CC2; 5.34
